- Tested on: MCF7 (breast)
- assayInfo: MTT in vitro cytotoxic activity assay, MCF7
- Format: cell-based
- conditionParameters: Homo sapiens; MCF7 cells, exposed for 96 hours; read-out: Cytotoxicity activity IC50, MCF7 (breast)
endpoint: IC50

INSERT INTO assay_data (inputsmiles, endpoint, result) VALUES
  ('Clc1cccc(Nc2c(-c3ccncn3)nn3cnccc23)c1', 'IC50', '5.5 µM');

* * *

- Test system: A375 (melanoma)
- assayInfo: MTT in vitro cytotoxic activity assay, A375
- Format: cell-based
- conditionParameters: Homo sapiens, A-375; A375 cells, exposed for 96 hours; read-out: Cytotoxicity activity IC50, A375 (melanoma)
pIC50: −log10 of the molar value.
endpoint: pIC50

INSERT INTO measurements (compound, endpoint, measurednumber) VALUES
  ('Clc1cccc(Nc2c(-c3ccncn3)nn3cnccc23)c1 [Compound 13]', 'pIC50', 5.47);

* * *

- Tested on: HCT116 (colon)
- assayInfo: MTT in vitro cytotoxic activity assay, HCT116
- Type: cell-based
- conditionParameters: Homo sapiens, HCT-116; HCT116 cells, exposed for 96 hours; read-out: Cytotoxicity activity IC50, HCT116 (colon)
pIC50: −log10 of the molar value.
endpoint: pIC50

INSERT INTO assay_data (molecule, systemundertest, measurednumber) VALUES
  ('Clc1cccc(Nc2c(-c3ccncn3)nn3cnccc23)c1 [Compound 13]', 'HCT116 (colon)', 5.68);

* * *

- systemUnderTest: recombinant human CK2 (Homo sapiens, UniProt P68400)
- Sequence (P68400 whole entry): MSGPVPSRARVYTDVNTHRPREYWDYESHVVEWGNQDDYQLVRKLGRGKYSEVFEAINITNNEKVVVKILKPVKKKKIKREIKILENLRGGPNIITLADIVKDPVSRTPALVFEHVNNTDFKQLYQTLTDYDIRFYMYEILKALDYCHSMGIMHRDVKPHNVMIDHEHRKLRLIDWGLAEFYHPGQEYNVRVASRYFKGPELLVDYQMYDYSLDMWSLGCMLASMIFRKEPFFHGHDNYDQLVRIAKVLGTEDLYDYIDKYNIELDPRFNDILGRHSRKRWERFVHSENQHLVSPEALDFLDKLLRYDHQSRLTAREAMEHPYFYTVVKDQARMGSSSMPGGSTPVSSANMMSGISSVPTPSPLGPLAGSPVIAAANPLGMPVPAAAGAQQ
- Sequence (P67870 whole entry partner): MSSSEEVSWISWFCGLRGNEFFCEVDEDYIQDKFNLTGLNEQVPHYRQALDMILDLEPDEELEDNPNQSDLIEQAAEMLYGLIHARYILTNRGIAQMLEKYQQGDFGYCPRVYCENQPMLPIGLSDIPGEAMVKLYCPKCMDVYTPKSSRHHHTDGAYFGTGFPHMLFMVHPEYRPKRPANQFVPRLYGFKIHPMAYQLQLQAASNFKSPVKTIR
- assayInfo: CK2 Kinase Assay (33P-ATP, substrate peptide RRRDDDSDDD)
- conditionParameters: recombinant human CK2 holoenzyme, final ATP 15 μM, 10 min at 30° C.; read-out: protein kinase CK2 activity IC50
pIC50: −log10 of the molar value.
endpoint: pIC50

INSERT INTO assay_data (inputsmiles, endpoint, measurednumber) VALUES
  ('Clc1cccc(Nc2c(-c3ccncn3)nn3cnccc23)c1', 'pIC50', 6.96);
